FYI, the data here is from paper PMC4336329.

target: human ether-à-go-go-related gene (hERG) potassium channel (human); test: primary screen, population patch clamp on CHO cells stably expressing hERG; higher = less effect of the substance
Among all 310,000 compounds or so, about 14,000 (4.5%) showed an effect of 50% or more. Effects have a minus sign here. Many of the other results were omitted from the sample, so strong results are more common in it than they were.
readout.type: hERG current change (%, negative = inhibition) at 10uM (%)
Form entry: value (%) — number only.

1. O=C(Nc1ccc2c(c1)OCO2)C1CCCCC1 ... 0.102
2. CCn1ccnc1CN(C)C(=O)C1CCC(=O)N(Cc2cccc(F)c2)C1 (centres unmarked) ... -11.9
3. CCOc1ccccc1C(=O)Nc1ccc(NC(=O)c2ccccc2)cc1 ... 12.7
4. COc1ccc(Cc2nnc(SCC(=O)N3CCCC3)o2)cc1 ... 2.54
5. NC(=O)c1nsc(C(=O)N(Cc2cccnc2)C(C(=O)NCc2ccc(F)cc2)c2ccc(O)cc2)c1N (centres unmarked) ... -1.96
6. CN(C)Cc1nc2ccccc2c(=O)n1Cc1nc(-c2cccc([N+](=O)[O-])c2)cs1 ... -36.9
7. COc1ccc(NC(=O)C(c2ccccc2)N(C)C(=O)c2cnccn2)cc1 (centres unmarked) ... 1.47
8. COc1ccc(C(=O)N2CCC(C(=O)Nc3ccc4c(c3)OCCO4)CC2)cc1 ... -44.2
9. Cc1cc(C)n(CC(O)COc2ccccc2C(=O)Nc2ccccc2)n1 (centres unmarked) ... -26.1
10. O=C(Nc1ccnn1C1CCN(Cc2cccc(OCCO)c2)CC1)C1CC1 ... 0.219

Challenge: For the compound CN(Cc1ccccc1Cl)C(=O)C1CCC(=O)N(CCc2cccc(F)c2)C1 (centres unmarked) , report hERG current change (%, negative = inhibition) at 10uM.
Response given: -52.5

Challenge: Give a short answer stating reported hERG current change (%, negative = inhibition) at 10uM for Cc1ccsc1CN(C)C(=O)C1CCC(=O)N(CCc2cccc(F)c2)C1 (centres unmarked) .
Response given: -35.9

Challenge: Recall and state the measured hERG current change (%, negative = inhibition) at 10uM for O=C(CSc1cccc[n+]1[O-])Nc1ccc(C(F)(F)F)cc1[N+](=O)[O-] .
Response given: 4.31

Challenge: Look up and report measured hERG current change (%, negative = inhibition) at 10uM for this entry: CN1CCN(Cc2nc3ccccc3c(=O)n2Cc2nc(-c3ccc([N+](=O)[O-])cc3)cs2)CC1
Response given: -73.8

Challenge: Consider the compound CN(C)Cc1nc2ccccc2c(=O)n1Cc1nc(-c2cc3ccccc3o2)cs1 . State its measured hERG current change (%, negative = inhibition) at 10uM.
Response given: 9.3

---

target: human ether-à-go-go-related gene (hERG) potassium channel (human); assay: primary screen, population patch clamp on CHO cells stably expressing hERG; higher = less effect of the substance;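 also: peak tail current of the secondary pulse compared with the same well before compound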
The whole screen tested about 310,000 compounds, of which about 14,000 (4.5%) showed an effect of 50% or more. The effect is printed as a negative number. The sample holds strong results, similar compounds and a random draw of the others, so the mix is not that of the screen.
readout.type: hERG current change (%, negative = inhibition) at 10uM (%)
Write down the numeric answer in % and omit the unit.

# example entries with known answers
1. CCc1ccccc1NC(=O)C1CCCN(c2ncnc3onc(-c4ccc(F)cc4)c23)C1 (centres unmarked) ... 11.2
2. Cc1ccc(-c2cc(C(=O)N/N=C/C=C/c3ccccc3)n[nH]2)o1 ... -7.76
3. CCOC(=O)c1csc(NNC=O)n1 ... 6.73
4. O=C(N[C@H]1CC1c1ccccc1)c1ccc([N+](=O)[O-])cc1 (some centres unmarked) ... -6.56

API: the following record is the query input.
Challenge: Supply recorded hERG current change (%, negative = inhibition) at 10uM for Cn1c(Cn2c(=O)sc3ccccc32)nnc1SCc1ccccc1F here.
Response given: -19.9

---

Biological target: human ether-à-go-go-related gene (hERG) potassium channel (human);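 also: peak tail current of the secondary pulse compared with the same well before compound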
Assay: primary screen, population patch clamp on CHO cells stably expressing hERG; higher = less effect of the substance
Procedure: Briefly, Chinese hamster ovary (CHO) cells stably expressing the hERG channel were dislodged from tissue culture flasks and dispensed into PPC plates. […] During the recording, background leak currents were estimated by a 100 ms step to -80 mV from an initial holding potential of -70 mV and subtracted from the subsequent current measurement. The campaign was conducted in two phases using slight differences in recording protocol. […]
The campaign covered roughly 310,000 compounds. About 14,000 (4.5%) showed an effect of 50% or more. Effects have a minus sign here. Only a selection was taken, and strong results are over-represented in it overall.
readout.type: hERG current change (%, negative = inhibition) at 10uM (%)
Respond numerically; units are % and should not be typed.

Reference set, count: 5
1. COC(=O)CSc1nnc(CNc2ccc(F)cc2)o1 ... 14.5
2. O=S(=O)(NCCc1csc(-c2ccccc2)n1)c1cccnc1 ... 8.48
3. O=C(O)c1cccc(Nc2ncnc3ccccc23)c1 ... 17.3
4. O=c1[nH]c(O)c(/C=C2\C=Nc3ccccc32)[nH]1 ... 20.9
5. COC(=O)C1=C(c2ccccc2)C[C@@H]2CC[C@H]1N2C(=O)NCc1cccc2ccccc12 ... -12.2

Challenge: Query hERG current change (%, negative = inhibition) at 10uM for O=C1Nc2ncccc2OC1CCCl (stereo not drawn)
Response given: 6.83

---

target: human ether-à-go-go-related gene (hERG) potassium channel (human, UniProt Q12809); assay: primary screen, population patch clamp on CHO cells stably expressing hERG; higher = less effect of the substance;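 also: peak tail current of the secondary pulse compared with the same well before compound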
Sequence (Q12809 whole entry, looked up): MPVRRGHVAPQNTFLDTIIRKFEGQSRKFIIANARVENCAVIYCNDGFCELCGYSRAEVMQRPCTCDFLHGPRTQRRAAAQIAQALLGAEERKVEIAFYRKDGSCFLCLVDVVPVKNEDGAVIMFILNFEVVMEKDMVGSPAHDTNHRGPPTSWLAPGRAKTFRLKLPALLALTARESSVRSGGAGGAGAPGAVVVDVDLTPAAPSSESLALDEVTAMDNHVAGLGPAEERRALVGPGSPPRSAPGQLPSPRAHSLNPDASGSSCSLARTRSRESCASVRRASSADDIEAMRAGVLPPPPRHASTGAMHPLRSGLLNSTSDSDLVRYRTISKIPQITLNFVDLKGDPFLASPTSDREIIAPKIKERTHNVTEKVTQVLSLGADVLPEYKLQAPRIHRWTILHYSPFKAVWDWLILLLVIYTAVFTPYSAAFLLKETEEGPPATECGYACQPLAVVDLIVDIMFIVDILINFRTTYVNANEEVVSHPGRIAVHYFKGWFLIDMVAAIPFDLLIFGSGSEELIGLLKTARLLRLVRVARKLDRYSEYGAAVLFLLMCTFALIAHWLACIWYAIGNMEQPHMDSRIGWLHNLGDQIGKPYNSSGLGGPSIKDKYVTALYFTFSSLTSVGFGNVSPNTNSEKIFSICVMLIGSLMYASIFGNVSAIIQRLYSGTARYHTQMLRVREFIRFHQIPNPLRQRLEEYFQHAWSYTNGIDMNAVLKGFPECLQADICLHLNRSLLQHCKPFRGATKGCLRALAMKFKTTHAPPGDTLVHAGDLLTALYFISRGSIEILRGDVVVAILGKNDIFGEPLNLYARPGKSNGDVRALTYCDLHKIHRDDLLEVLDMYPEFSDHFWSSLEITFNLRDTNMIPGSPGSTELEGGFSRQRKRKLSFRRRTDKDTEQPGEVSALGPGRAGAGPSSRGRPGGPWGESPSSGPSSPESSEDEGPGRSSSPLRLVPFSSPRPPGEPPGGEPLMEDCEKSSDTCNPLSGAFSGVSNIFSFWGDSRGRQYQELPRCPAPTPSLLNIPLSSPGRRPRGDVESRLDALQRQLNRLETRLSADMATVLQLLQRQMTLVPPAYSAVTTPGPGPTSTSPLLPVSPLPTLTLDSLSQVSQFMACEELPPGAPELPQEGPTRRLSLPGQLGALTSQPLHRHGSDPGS
Screen size: about 310,000 compounds; about 14,000 (4.5%) showed an effect of 50% or more. The effect is printed as a negative number. The full list was thinned out, with strong results kept by preference.
Below is a list of entries, each paired with its recorded hERG current change (%, negative = inhibition) at 10uM value.
Write the value in % as a bare number.

Look over these answered cases.
1. O=C(O)C(=O)O.Oc1ccccc1NCC(O)Cn1ccc2ccccc21 (stereo not shown) ... 13.4
2. O=C1N=C(N2CCCCC2)S/C1=C\c1ccc(Cl)cc1 ... 9.15
3. O=C(Cc1n[nH]c(=O)c2ccccc12)Nc1cccc(S(=O)(=O)N2CCCCCC2)c1 ... -57.8
4. CC(C(=O)NCc1ccc2c(c1)OCO2)N1c2cccc3cccc(c23)S1(=O)=O (stereo not shown) ... -22.7

Challenge: Return the recorded hERG current change (%, negative = inhibition) at 10uM value; entry: CCN1C(=O)CC(NCc2ccc3c(c2)OCO3)C1=O (stereo not shown)
Response given: -9.23

Challenge: Specify reported hERG current change (%, negative = inhibition) at 10uM for the compound shown: O=C1CN(c2nnnn2-c2ccccc2)CCN1
Response given: -6.89

Challenge: Provide measured hERG current change (%, negative = inhibition) at 10uM value, entry: COc1cc(OC)cc(C(=O)NNC(=S)Nc2ccccc2OC)c1
Response given: 10.8

Challenge: Quickly give me recorded hERG current change (%, negative = inhibition) at 10uM for O=C(O)C(=O)O.O=[N+]([O-])c1cccc(CN2CCN(Cc3ccc(Br)cc3)CC2)c1
Response given: -72.4

Challenge: Name the recorded hERG current change (%, negative = inhibition) at 10uM of the compound listed here: Cc1ccc(NC(=O)Cc2c[nH]c3ccccc23)cc1S(=O)(=O)N1CCCCCC1
Response given: 14.1

Challenge: Look up hERG current change (%, negative = inhibition) at 10uM of COc1cc(Cl)ccc1OCc1cc(C(=O)N(C)CCc2c(C)n[nH]c2C)no1 and report it.
Response given: -19.5

Challenge: Dear colleague, please send me the reported hERG current change (%, negative = inhibition) at 10uM for COCCOC1CCN(C(=O)C2CCC(=O)N(Cc3cccc(F)c3)C2)CC1 (stereo not shown) when you can.
Response given: 20.1

Challenge: Output hERG current change (%, negative = inhibition) at 10uM of CS(=O)(=O)c1ccccc1-c1nc(-c2cc(C(F)(F)F)cc(C(F)(F)F)c2)no1
Response given: 4.06

Challenge: Provide only the value of recorded hERG current change (%, negative = inhibition) at 10uM for O=C(O)C(=O)O.O=[N+]([O-])c1cccc(CN2CCN(Cc3ccco3)CC2)c1
Response given: -4.34

Challenge: Fill in hERG current change (%, negative = inhibition) at 10uM for record O=C(O)C(=O)O.O=C(c1ccco1)N1CCN(Cc2cccc([N+](=O)[O-])c2)CC1
Response given: -20.3

Challenge: Identify measured hERG current change (%, negative = inhibition) at 10uM corresponding to COc1cc(Cl)c(C)cc1NC(=O)CSc1nnc(-c2cccnc2)n1Cc1ccco1
Response given: -56.9

---

molecular target: human ether-à-go-go-related gene (hERG) potassium channel (human); test: primary screen, population patch clamp on CHO cells stably expressing hERG; higher = less effect of the substance;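 also: peak tail current of the secondary pulse compared with the same well before compound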
Among all 310,000 compounds or so, about 14,000 (4.5%) showed an effect of 50% or more. Effects have a minus sign here. What follows is part of a selection rich in strong results, with near analogues and random picks from the rest.
Use class 1 when the recorded hERG current change (%, negative = inhibition) at 10uM is no lower than -30%; use class 0 when it is lower.

1. Cn1c(CS(=O)Cc2c(Cl)cccc2Cl)nnc1SCc1c(Cl)cccc1Cl (centres unmarked) ... class 0
2. CN1CCc2c1nc1ccccc1c2NC(=O)CN1CCCC1 ... class 1
3. O=C(O)c1cc(=O)n(Cc2ccccc2)c(=O)[nH]1 ... class 1

Challenge: Exam item: decide whether the reported hERG current change (%, negative = inhibition) at 10uM for O=C(CN1CCOCC1)Nc1c2c(nc3ccccc13)N(Cc1ccccc1)CC2.O=C(O)C(=O)O is at least -30%.
Response given: class 0

Challenge: Could you verify whether the entry CCCCCC(=O)Nc1cc(N(C)C)nc2ccccc12 shows hERG current change (%, negative = inhibition) at 10uM of no less than -30%?
Response given: class 0

Challenge: # check: hERG current change (%, negative = inhibition) at 10uM of CCN(CC)CC(=O)Nc1c2c(nc3ccccc13)N(C)CC2.O=C(O)C(=O)O is greater than or equal to -30%
Response given: class 1

Challenge: Is the recorded value of hERG current change (%, negative = inhibition) at 10uM equal to or greater than -30% for this molecule? CCCCCCC(=O)Nc1c2c(nc3ccccc13)N(C)CC2
Response given: class 0

Challenge: Decide: hERG current change (%, negative = inhibition) at 10uM of O=C(COC(=O)c1ccccc1C(=O)N1CCN(c2ccccc2)CC1)Nc1ccccc1 >= -30%?
Response given: class 1
